# Test system: Aorta
# test-protocol: Vasorelaxant activity in Sprague-Dawley rat aortic rings assessed as reduction in phenylephrine-induced contractions
# Format: functional, tissue-based
pEC50: −log10 of the molar value.
assay-readout: pEC50

>  <molecule>
COc1ccc(CCC(Cc2ccc(OC)c(OC)c2)N(C)CCc2ccc(OC)c(OC)c2)cc1OC (stereo not given)

>  <assay-readout>
pEC50

>  <val>
6.02

$$$$
>  <molecule>
CC(CCc1ccc(O)cc1)NCCc1ccc(O)c(O)c1 (stereo not given) [DOBUTAMINE]

>  <assay-readout>
pEC50

>  <val>
5.60

$$$$
>  <molecule>
COc1ccc(CCC(Cc2ccc(OC)c(OC)c2)NCCc2cc(OC)c3c(c2)OCO3)cc1OC (stereo not given)

>  <assay-readout>
pEC50

>  <val>
5.68

$$$$
>  <molecule>
COc1ccc(CCNC(CCc2ccc(OC)c(OC)c2)Cc2ccc(OC)c(OC)c2)cc1OC (stereo not given)

>  <assay-readout>
pEC50

>  <val>
5.70

$$$$
>  <molecule>
COc1ccc(CCC(Cc2ccc(OC)c(OC)c2)NCCc2ccc3c(c2)OCO3)cc1OC (stereo not given)

>  <assay-readout>
pEC50

>  <val>
5.73

$$$$
